- Protocol: Toxicity in tadpole assessed as lethality at 2.5 ppm measured after 96 hrs
- Type: organism-based
- Condition description: anura, in vivo
Measured parameter: mortality at 96 h, 2.5 ppm (%)
Hi! Could you send only the number? It should be in %, unit omitted.

response.value for COc1cc(-n2cnc3ccc(Cl)cc3c2=O)cc(OC)c1OC (field: mortality at 96 h, 2.5 ppm) = 0

* * *

- Protocol: Toxicity in tadpole assessed as lethality at 0.3125 ppm measured after 24 hrs
- Assay type: organism-based
- Condition description: anura, in vivo
Measured parameter: mortality at 24 h, 0.3125 ppm

response.value for COc1cc(-n2cnc3ccc(Cl)cc3c2=O)cc(OC)c1OC (field: mortality at 24 h, 0.3125 ppm) = 0%

* * *

- Protocol: Toxicity in tadpole assessed as lethality at 5 ppm measured after 96 hrs
- Type: organism-based
- Condition description: anura, in vivo
Measured parameter: mortality at 96 h, 5 ppm

response.value for COc1cc(-n2cnc3ccc(Cl)cc3c2=O)cc(OC)c1OC (field: mortality at 96 h, 5 ppm) = 10%

* * *

- Test system: Oncomelania hupensis
- Protocol: Molluscicidal activity against Oncomelania hupensis measured after 24 hrs
- Assay type: functional
Measured parameter: LC90

These recorded examples may help you get a feel for the data.
>  <Line notation>
O=c1c2cc(Cl)ccc2ncn1C1CCCCC1

>  <Result>
>100 ppm

$$$$
>  <Line notation>
CCCn1cnc2ccc(Cl)cc2c1=O

>  <Result>
>100 ppm

$$$$

response.value for NCCO.O=C(Nc1ccc([N+](=O)[O-])cc1Cl)c1cc(Cl)ccc1O (field: LC90) = <1 ppm
